Experiment: physchem
Conditions: aqueous POM polymer solution, pH 7, aqueous with cosolvent or surfactant or cyclodextrin, thermodynamic from solid, Total concentration of solubilized active ingredient for 20 g/l of polymer, sodium polyglutamate DP=100, 15% VE, 20 g/l; pH 7.0; ambient temperature
MEASUREMENT_NAME: solubility

* CC(=O)N1CCN(c2ccc(OCC3COC(Cn4ccnc4)(c4ccc(Cl)cc4Cl)O3)cc2)CC1 (stereo not shown) | 7.16 mM

----------
Experiment: Solubilization of paclitaxel in concentrated aqueous POM polymer solution (visual check)
Type: physicochemical
Conditions: concentrated aqueous POM polymer solution, pH 7, aqueous with cosolvent or surfactant or cyclodextrin, thermodynamic from solid, sodium polyglutamate DP=100, 30% VE, 53.5 mg/ml; pH 7.0; ambient temperature; read-out: Total concentration of solubilized active ingredient
MEASUREMENT_NAME: solubility

- CC(=O)O[C@H]1C(=O)[C@@]2(C)[C@H]([C@H](OC(=O)c3ccccc3)[C@]3(O)C[C@H](OC(=O)[C@H](O)[C@@H](NC(=O)c4ccccc4)c4ccccc4)C(C)=C1C3(C)C)[C@]1(OC(C)=O)CO[C@@H]1C[C@@H]2O [paclitaxel]: < 1400 µM
